# EXPERIMENTAL_TARGET: CAMK1D (Homo sapiens, UniProt Q8IU85)
# Sequence (Q8IU85 whole entry): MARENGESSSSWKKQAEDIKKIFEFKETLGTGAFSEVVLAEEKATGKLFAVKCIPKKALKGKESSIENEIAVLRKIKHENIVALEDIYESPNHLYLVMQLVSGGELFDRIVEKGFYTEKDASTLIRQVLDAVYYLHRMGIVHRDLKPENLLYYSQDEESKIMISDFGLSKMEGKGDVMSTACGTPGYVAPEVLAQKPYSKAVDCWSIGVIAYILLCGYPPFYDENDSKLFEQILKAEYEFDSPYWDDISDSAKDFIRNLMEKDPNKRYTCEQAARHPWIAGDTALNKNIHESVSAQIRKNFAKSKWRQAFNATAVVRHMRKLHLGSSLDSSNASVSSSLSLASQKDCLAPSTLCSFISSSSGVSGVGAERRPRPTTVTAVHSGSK
# ASSAY: KINOMEscan competition binding
# RUN_PARAMETERS: read-out: %Inh CAMK1D

COMPOUND: O=c1cc(N2CCOCC2)nc2n(Cc3cccc(Cl)c3Cl)c(C3CC3)nn12 [UNC10225469A]
UNIT_ABBREVIATION: %
inhibition at 1 µM: 0
//
COMPOUND: Cc1ccc(NC(=O)Nc2cccc(C(F)(F)F)c2)cc1 [UNC10225187A]
UNIT_ABBREVIATION: %
inhibition at 1 µM: 25
//
COMPOUND: CS(=O)(=O)Cc1ccc(Nc2nccc(-c3c(-c4cccc(NC(=O)C5CCCCC5)c4)nn4ncccc34)n2)cc1 [UNC10225159A]
UNIT_ABBREVIATION: %
inhibition at 1 µM: 0
//
COMPOUND: COc1cccc(OC)c1C(=O)Nc1cccc(-c2nn3ccccc3c2-c2ccnc(Nc3cccc(F)c3)n2)c1 [UNC10225310A]
UNIT_ABBREVIATION: %
inhibition at 1 µM: 13
//
COMPOUND: Cn1cc(-c2cnc(N)c3c(-c4ccc5c(c4)CCN5C(=O)Cc4ccccc4)csc23)cn1 [UNC10225012A]
UNIT_ABBREVIATION: %
inhibition at 1 µM: 11

Recorded values, source paper PMC5540273.
